Protocol Notes: antimalarial activity against Dd2 strain (AID 2302);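 also: 0% = DMSO untreated growth and 100% = chloroquine plus artemisinin killed control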
Condition Notes: P. falciparum Dd2 in RBCs, LDH growth readout, 72 h; at 2 µM
Active and inactive are the calls of the source.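 The calls were made as follows: active = growth inhibition above 50% at the single 2 µM test dose, taken to imply half-maximal potency below 2 µM; inactive = the rest.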
Outcome codes: 1.0 (active), 0.0 (inactive)

# Compound, Assigned Class
measured = [
    ("N#Cc1ccccc1S(=O)(=O)N1CCCC(CNC(=O)[C@H](CC2CCCCC2)NC(=O)c2cc3ccccc3s2)C1 (stereo partly specified)", 1.0),
    ("CC(C)[C@H](NC(=O)c1ccc(O)c(-c2cccc(C(F)(F)F)c2)c1)C(=O)NC1CCCc2ccccc21 (stereo partly specified)", 0.0),
    ("OCCC1CCN(Cc2ccc(-c3ccc(-c4nc5ccccc5[nH]4)cc3)cc2)CC1", 1.0),
    ("CCCCCc1cnc2nc(N)nc(N)c2c1", 0.0),
    ("NC(N)=Nc1nc(-c2cc(NC(=O)C(F)(F)F)cc([N+](=O)[O-])c2)cs1", 1.0),
    ("Cn1cnc2c(SCc3ccc(OCc4ccccc4)cc3)ncnc21", 1.0),
    ("CCN(CCCN1CCCCC1)c1cc(C)nc(Nc2ccc(C)c(Cl)c2)n1", 1.0),
    ("CC(C)CCn1c(Sc2ccc(C#N)c([N+](=O)[O-])c2)nnc1-c1ccc(N(C)C)cc1", 1.0),
    ("CN(C(=O)c1nn(-c2ccccn2)c2nccc(-c3cccs3)c12)C1CCCCC1", 0.0),
    ("COc1cc2nc(NCCn3nc(C)cc3C)nc(NCCc3ccccc3)c2cc1OC", 1.0),
    ("CN1CCCC1CNS(=O)(=O)c1ccc(C(=O)NCC2CC2)cc1 (stereo unspecified)", 0.0),
    ("CN(C)C(=O)c1ccc(CN(Cc2ccc3c(c2)OCCO3)Cc2ccc3c(c2)OCO3)cc1", 1.0),
    ("COc1ccc2ccc(F)c(CC(=O)N3CCOC(CNCc4cccc(-c5ccc(F)cc5)n4)C3)c2n1 (stereo unspecified)", 0.0),
    ("Cc1cccc(C)c1OC(=O)[C@@H](C)[C@@H](O)C1(Sc2ccccc2)CCN(C)CC1", 1.0),
    ("CCN(CC)c1ccc(-c2nc3ncc(Cl)cc3[nH]2)cc1", 1.0),
    ("O=C(/C=C/c1ccc(Cl)c(Cl)c1)NCCCCCN1CCCN(C(=O)Nc2cccc(C(F)(F)F)c2)CC1", 0.0),
]

----------
Assay System: L-lactate dehydrogenase (Plasmodium falciparum (isolate CDC / Honduras))
Protocol Notes: PfLDH activity inhibition – cell lysate, 3D7 strain, counter-screen for P. falciparum growth inhibition project (AID 2304);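 also: 0% = vehicle and 100% = reference inhibitor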
Condition Notes: P. falciparum 3D7 crude extract, LDH APAD/NBT absorbance; at 2 µM; active compounds read high
Each entry below carries its reported inhibition.

# Molecule, inhibition (%)
measured = [
    ("Cc1ccc(NC(=O)N2CCC(n3c(-c4ccccc4)nc4cccnc43)CC2)cc1F", 2),
    ("CN(C)CCOc1cc(NC(=O)Nc2cccc([N+](=O)[O-])c2)ccc1I", 6),
    ("CC(C)N1CCN(C(=O)c2ccc(CNCCCN3CCN(c4cccc(Cl)c4Cl)CC3)o2)CC1", 1),
    ("COc1ccc(Cl)cc1NC(=O)C(C)Nc1ccc(-c2ccccc2)cc1 (stereo not drawn)", -1),
    ("COc1cc2c(C3CCN(CC4CCN(C(=O)/C=C/c5ccc(Cl)c(Cl)c5)CC4)CC3)c[nH]c2cn1", -1),
    ("Cc1ccc(-n2cc(CNCC3CCN(CCO)CC3)c(-c3ccc(F)cc3)n2)cc1", -1),
    ("CCCCOc1ccc(-n2c(Nc3ccccc3)nc3cc(S(N)(=O)=O)ccc32)cc1", -6),
    ("NC1CCCN(Cc2cccc(-c3ccc(-c4nc5ccc(C(F)(F)F)cc5[nH]4)cc3)c2)C1 (stereo not drawn)", -3),
    ("COc1ccc2nccc([C@@H](O)CN3CCC(NC(=O)C(c4ccsc4)N4CCN(c5ccccc5OC)CC4)CC3)c2c1 (stereo partly drawn)", -2),
    ("COc1ccc2[nH]cc(C3CCN(CCC4CCN(C(=O)/C=C/c5ccc(Cl)c(Cl)c5)CC4)CC3)c2c1", 3),
    ("CC(=O)Nc1ccc(CN2CCC(NC(=O)c3ccc(-c4cccc(F)c4)s3)CC2)cc1", 0),
    ("COc1ccc(-c2cc(-c3nc4ccc(CN)cc4[nH]3)c(=O)n(C)c2)cc1OC", 4),
    ("Cc1cc(CN2CC[C@H](NC(=O)c3ccc(Cl)c(Cl)c3)C2)ccc1OC1CCN(C)C1 (stereo partly drawn)", -3),
    ("CCN(CC)CCCNc1nccc(N2CCc3ncnc(Nc4ccc(OCc5cccc(F)c5)c(Cl)c4)c3C2)n1", 7),
    ("COc1ccc(C(=O)Nc2cc(Cl)c3c(c2)C2CCCN2CC3)cc1C(F)(F)F (stereo not drawn)", -1),
    ("COc1ccc(OCC(=O)Nc2nc(-c3ccc(OC)cc3)c(C)s2)cc1", -6),
    ("O=c1cc(NCCCCNCc2cccc(C(F)(F)F)c2)[nH]c2ccccc12", -1),
    ("C[C@@H](Oc1cc(-n2cnc3ccc(OCC4CCN(S(C)(=O)=O)CC4)cc32)sc1C(N)=O)c1ccccc1C(F)(F)F", 5),
]

----------
Assay System: L-lactate dehydrogenase (Plasmodium falciparum (isolate CDC / Honduras)) (UniProt Q27743)
Sequence (Q27743 whole entry, looked up): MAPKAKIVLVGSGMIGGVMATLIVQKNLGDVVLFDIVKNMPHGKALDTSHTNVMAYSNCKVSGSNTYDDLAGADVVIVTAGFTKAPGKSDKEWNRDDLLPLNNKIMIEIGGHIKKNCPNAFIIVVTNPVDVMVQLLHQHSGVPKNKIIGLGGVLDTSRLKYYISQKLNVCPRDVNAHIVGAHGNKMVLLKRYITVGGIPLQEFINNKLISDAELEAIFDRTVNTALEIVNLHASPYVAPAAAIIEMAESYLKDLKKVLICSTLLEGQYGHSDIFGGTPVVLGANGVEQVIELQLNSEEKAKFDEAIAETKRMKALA
Protocol Notes: PfLDH activity inhibition – cell lysate, 3D7 strain, counter-screen for P. falciparum growth inhibition project (AID 2304);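 also: 0% = vehicle and 100% = reference inhibitor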
Condition Notes: P. falciparum 3D7 crude extract, LDH APAD/NBT absorbance; at 2 µM; active compounds read high
Listing of recorded inhibition by entry.
Recorded Metric: inhibition (%)

# Molecule, Numeric Value
measured = [
    ("CC(=NNC(=S)Nc1ccccc1Cl)c1ccccn1", 6),
    ("CCNCc1ccc(-c2cccc(-c3nc4ccccc4[nH]3)c2)cc1", 4),
    ("CC(C)c1ccc(NC(=O)c2ccc(C(=O)NC3CCN(Cc4ccccc4)CC3)cc2)cc1", -3),
    ("NC(N)=NN=Cc1c2ccc(Cl)cc2c(Cl)c2ccc(Cl)cc12", 0),
    ("CCC[C@@H]([C@@H](CC1CCCCC1)C(=O)N[C@H](C(=O)Nc1nccs1)C(C)(C)SCCNC(=O)OCc1ccccn1)N(O)C=O", -5),
    ("COc1cccc(CNC[C@@H](O)[C@H](Cc2ccccc2)NC(=O)c2cc(NC(C)C)cc(N3CCCCS3(=O)=O)c2)c1", 1),
    ("CCCCCCNC(=O)C1Cc2c([nH]c3ccc(C)cc23)C2(CCN(Cc3ccccc3)CC2)N1 (stereo not drawn)", 6),
    ("Cc1cccc(-n2c(=O)c3c4c(sc3n3c(SCCC(C)C)nnc23)CCCC4)c1", -4),
]

----------
Protocol Notes: inhibition of 3D7 malaria parasite growth – strain 3D7 (AID 2306);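 also: 0% = DMSO wells and 100% = chloroquine plus artemisinin control wells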
Condition Notes: P. falciparum 3D7 erythrocytic growth, LDH absorbance, 72 h; at 2 µM; active compounds read high
Activity calls are given as the source filed them. No rule for the calls is given here.
Recorded Metric: growth inhibition

# Compound, Result
records = [
    ("COc1cc(OCCCCCCON2C(N)=NC(N)=NC2(C)C)cc(OC)c1OC", "94% (active)"),
    ("CN1CCN(c2ccc(Nc3nc(N)c4ccn(C5CCC5)c4n3)cc2)CC1", "93% (active)"),
    ("Cc1cc2c(cc1C(F)(F)F)N(C(=O)Nc1ccc(C(=O)NC3CCN(Cc4ccccc4)C3)cc1)CC2 (stereo unspecified)", "100% (active)"),
    ("O=C(N[C@@H](CC1CCCCC1)C(=O)NCCN1CCCCC1)c1ccc(O)c(-c2ccc(Cl)c(Cl)c2)c1", "97% (active)"),
    ("Cc1cc(NN=Cc2ccc(F)cc2)c2cccc(C)c2n1", "100% (active)"),
    ("O=C(O)c1cc(OCC(O)COc2ccc(O)c(C(=O)O)c2)ccc1O", "99% (active)"),
    ("N#Cc1ccc(C(=O)Nc2ccc(Cl)c(N3CCN(CCc4ccccc4)CC3)c2)cc1", "90% (active)"),
    ("NC(N)=Nc1nc(-c2cc(NC(=O)C(F)(F)F)cc([N+](=O)[O-])c2)cs1", "98% (active)"),
    ("N=C(N)c1ccc(OCc2cccc(COc3ccc(C(=N)N)cc3I)c2)c(I)c1", "102% (active)"),
    ("CC(C)(C)c1ccc(CN2CCC(CNC(=O)c3cc(-c4ccccc4F)cs3)C2)cc1 (stereo unspecified)", "100% (active)"),
    ("CCn1cc(-c2nc(-c3cc(OC)cc(OC)c3)no2)c(=O)c2ccccc21", "89% (active)"),
    ("COCCOc1cc(C)c(C2CCN(CCCCNC(=O)c3ccc(NC(=O)c4ccc(Cl)cc4)cc3)CC2)cc1C", "88% (active)"),
    ("O=C(Cc1ccccc1)NC1(c2ccccc2)CCN(CCc2c[nH]c3ccc(F)cc23)CC1", "87% (active)"),
    ("COc1cc(NC(=O)N2CCc3cc(OC)c(OCCN4CCCCC4)cc32)cc(C(F)(F)F)c1", "93% (active)"),
    ("CN(Cc1cccc(C#N)c1)C1CCN(c2cc(NC(=O)c3ccc(F)cc3)ccn2)CC1", "97% (active)"),
    ("O=C(Nc1cccc2ccccc12)N1CCC(NS(=O)(=O)c2cccc(C(F)(F)F)c2)CC1", "95% (active)"),
    ("CC(C)C[C@H](NC(=O)c1ccc(F)cc1)C(=O)N[C@H](/C=N/NC(=O)c1ccccc1)CCc1ccccc1", "92% (active)"),
    ("Cc1cc(NC(=O)Nc2ccc(Oc3ccccc3)cc2)c2ccccc2n1", "91% (active)"),
    ("O=C(/C=C/c1ccc(Cl)c(Cl)c1)NCCCCCN1CCC(c2c[nH]c3cc(O)ccc23)CC1", "101% (active)"),
    ("COc1cc(C(=O)NC2CCN(Cc3ccccc3)CC2)ccc1-c1nc2cc(Cl)c(C)cc2[nH]1", "99% (active)"),
    ("Cc1cccc2[nH]c(-c3ccc(-c4cccc(CNCCNC(=O)c5ccnn5C)c4)s3)nc12", "102% (active)"),
]
